measurement_description: NCI Yeast Anticancer Drug Screen. Data for the cln2 rad14 strain (AID 165)
run_conditions: S. cerevisiae cln2 rad14 strain, at 50.0 µM (retest, dose inferred, filed as 5.0)
Description: Growth inhibition of yeast strains with defined genetic alterations is measured as a screen for potential anti-cancer activity. Selected strains with alterations in DNA damage repair or cell cycle control were exposed to compounds and growth inhibition was measured relative to vehicle treated controls. The strain used in this assay is cln2 rad14
About 79,000 compounds went through this panel and 15% of them were active in at least one assay; those are over-represented in the sample as a whole. The source made the active and inactive calls. Rule as the data show it: active = growth inhibition above about 70%; inactive = the rest.
Select the correct class. Options are active, inactive and nothing else.

Please review the entries below; each comes with its answer.
Nc1ccccc1[S][Sn]([c]1ccccc1)([c]1ccccc1)[c]1ccccc1 = active
O=Nc1c2n[nH]c1CCCCCCCCC2 = active
CN(CCC(=O)/C(=C\c1ccc(Cl)cc1)c1ccccc1)Cc1ccccc1 = active

What is the recorded call for this compound in the test? C(=C/c1ccnc2ccccc12)/c1cccs1 inactive

What is the recorded call for this compound in the test? NC(N)=NC(N)=Nc1ccc(-c2ccccc2)cc1 active

What is the recorded call for this compound in the test? CN(C)C(=S)SN(C)C(=O)Nc1ccccc1 active
